System under test: ATP-dependent translocase ABCB1 (Homo sapiens, UniProt P08183)
Sequence (P08183 whole entry): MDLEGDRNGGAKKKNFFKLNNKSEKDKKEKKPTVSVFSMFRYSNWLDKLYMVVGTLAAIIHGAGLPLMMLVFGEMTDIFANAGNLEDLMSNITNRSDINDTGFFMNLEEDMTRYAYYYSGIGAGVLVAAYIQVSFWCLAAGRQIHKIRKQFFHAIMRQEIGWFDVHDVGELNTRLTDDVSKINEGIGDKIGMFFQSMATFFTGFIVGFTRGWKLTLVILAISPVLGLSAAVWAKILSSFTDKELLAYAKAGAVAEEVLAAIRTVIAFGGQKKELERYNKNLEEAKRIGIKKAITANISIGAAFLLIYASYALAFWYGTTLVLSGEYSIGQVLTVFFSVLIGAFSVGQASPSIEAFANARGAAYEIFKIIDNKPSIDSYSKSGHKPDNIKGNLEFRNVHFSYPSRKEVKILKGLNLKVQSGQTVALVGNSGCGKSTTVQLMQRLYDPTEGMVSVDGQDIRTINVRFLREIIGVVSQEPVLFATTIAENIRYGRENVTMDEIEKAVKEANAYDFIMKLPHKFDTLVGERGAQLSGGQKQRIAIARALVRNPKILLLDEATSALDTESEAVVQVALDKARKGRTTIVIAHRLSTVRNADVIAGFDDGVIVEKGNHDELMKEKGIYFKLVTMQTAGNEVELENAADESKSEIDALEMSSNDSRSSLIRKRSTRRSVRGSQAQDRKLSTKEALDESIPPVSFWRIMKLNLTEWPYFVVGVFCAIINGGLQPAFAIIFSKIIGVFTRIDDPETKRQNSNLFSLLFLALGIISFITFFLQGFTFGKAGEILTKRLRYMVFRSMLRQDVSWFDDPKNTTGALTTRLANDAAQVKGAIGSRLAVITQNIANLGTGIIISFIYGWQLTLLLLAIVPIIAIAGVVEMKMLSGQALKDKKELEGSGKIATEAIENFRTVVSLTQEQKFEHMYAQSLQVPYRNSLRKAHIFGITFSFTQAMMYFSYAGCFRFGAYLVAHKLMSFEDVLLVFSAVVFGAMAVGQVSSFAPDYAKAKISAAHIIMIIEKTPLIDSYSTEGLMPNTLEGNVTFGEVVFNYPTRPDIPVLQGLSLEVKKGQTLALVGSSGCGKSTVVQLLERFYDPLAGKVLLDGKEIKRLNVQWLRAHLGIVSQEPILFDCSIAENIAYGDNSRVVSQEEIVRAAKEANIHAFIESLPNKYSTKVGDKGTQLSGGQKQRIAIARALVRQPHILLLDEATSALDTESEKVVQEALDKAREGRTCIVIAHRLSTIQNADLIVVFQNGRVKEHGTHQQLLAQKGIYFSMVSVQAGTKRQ
Protocol: Inhibition of ABCB1 in human MCF7/ADR cells assessed as potentiation of vinblastine-induced cytotoxicity at IC10 after 7 days by SRB assay relative to vinblastine alone
Format: cell-based
Test parameters: 168 h
Parameter measured: fold change (FC)
One number for each entry.

Cc1cc(C)c2c(c1)c(=O)c1ccccc1n2CCCN1CCN(CCO)CC1    16.74
Cc1cc(C)c2c(c1)c(=O)c1ccccc1n2CCCN1CCCCC1    7.17
Cc1cc(C)c2c(c1)c(=O)c1ccccc1n2CCCN1CCOCC1    6.4

// input: 4 compounds below; output: fold change (FC) for each
1. Cc1cc(C)c2c(c1)c(=O)c1ccccc1n2CCCN1CCN(C)CC1
2. Cc1cc(C)c2c(c1)c(=O)c1ccccc1n2CCCN(CCO)CCO
3. CCN(CC)CCCn1c2ccccc2c(=O)c2cc(C)cc(C)c21
4. Cc1cc(C)c2[nH]c3ccccc3c(=O)c2c1

OUT:
1. 4.75
2. 9.7
3. 10.48
4. 1.4

====

Answer each item with its documented inhibition at 20 min.
System under test: ABCB1 (P-glycoprotein) (Homo sapiens, UniProt P08183)
Protocol: Displacement of [3H]-azidopine from ABCB1 in human KBV1 cell membranes at IC50 incubated for 20 mins in dark followed by irradiation of UV-light measured after 20 mins by SDS-PAGE based autoradiography relative to control
Test parameters: probe [3H]-azidopine
Answers are plain numbers, in %.

Cc1cc(C)c2c(c1)c(=O)c1ccccc1n2CCCN1CCOCC1    26
Cc1cc(C)c2c(c1)c(=O)c1ccccc1n2CCCCN1CCCCC1    42
Cc1cc(C)c2c(c1)c(=O)c1ccccc1n2CCCN1CCCCC1    34
Cc1cc(C)c2c(c1)c(=O)c1ccccc1n2CCCCN(CCO)CCO    55

IN: Please look up its inhibition at 20 min: "Cc1cc(C)c2c(c1)c(=O)c1ccccc1n2CCCCN1CCN(CCO)CC1"
OUT: 58

====

Answer each item with its documented inhibition at 20 min.
System under test: UniProt:P08183
Protocol: Displacement of [3H]-azidopine from ABCB1 in human KBV1 cell membranes at IC50 incubated for 20 mins in dark followed by irradiation of UV-light measured after 20 mins by SDS-PAGE based autoradiography relative to control
Test parameters: probe [3H]-azidopine
Answers are plain numbers, in %.

COc1ccc(CCN(C)CCCC(C#N)(c2ccc(OC)c(OC)c2)C(C)C)cc1OC (stereo unspecified) [VERAPAMIL]    61
Cc1cc(C)c2c(c1)c(=O)c1ccccc1n2CCCCl    28
Cc1cc(C)c2c(c1)c(=O)c1ccccc1n2CCCN1CCN(CCO)CC1    52

// input: 4 compounds below; output: inhibition at 20 min for each
1. CCN(CC)CCCCn1c2ccccc2c(=O)c2cc(C)cc(C)c21
2. Cc1cc(C)c2c(c1)c(=O)c1ccccc1n2CCCN(CCO)CCO
3. Cc1cc(C)c2c(c1)c(=O)c1ccccc1n2CCCCN1CCOCC1
4. Cc1cc(C)c2c(c1)c(=O)c1ccccc1n2CCCN1CCN(C)CC1

OUT:
1: 54; 2: 40; 3: 36; 4: 46

====

System under test: ABCB1 (P-glycoprotein) (Homo sapiens, UniProt P08183)
Protocol: Displacement of [3H]-azidopine from ABCB1 in human KBV1 cell membranes at IC50 incubated for 20 mins in dark followed by irradiation of UV-light measured after 20 mins by SDS-PAGE based autoradiography relative to control
Test parameters: probe [3H]-azidopine
Answer each item with its documented inhibition at 20 min.
Give bare numbers, in %.

Cc1cc(C)c2c(c1)c(=O)c1ccccc1n2CCCCCl    36
Cc1cc(C)c2[nH]c3ccccc3c(=O)c2c1    33
Cc1cc(C)c2c(c1)c(=O)c1ccccc1n2CCCCN1CCN(C)CC1    43

Now take the following molecule into account.
IN: Identify the measured inhibition at 20 min of "CCN(CC)CCCn1c2ccccc2c(=O)c2cc(C)cc(C)c21" for ABCB1 (P-glycoprotein) (Homo sapiens, UniProt P08183).
OUT: 36
